Assay System: KRas G12C/Q61H double mutant (Homo sapiens (Human), UniProt P01116, G12C/Q61H)
Sequence (P01116-2 other isoform, or with tags, fused parts or gaps G12C/Q61H): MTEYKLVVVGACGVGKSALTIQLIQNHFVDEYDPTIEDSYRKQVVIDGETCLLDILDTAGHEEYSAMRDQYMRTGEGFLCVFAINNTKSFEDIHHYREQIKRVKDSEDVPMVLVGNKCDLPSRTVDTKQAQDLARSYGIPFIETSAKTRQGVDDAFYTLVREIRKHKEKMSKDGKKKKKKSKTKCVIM
Method: Ras GTP binding domain inhibition assay
Setup Conditions: 20 μM compound
Overview of reported inhibition at 20 µM across a group of compounds:

{"columns": ["Compound", "Quantity Measured", "Result"],
 "data": [
  ["Nc1nc(-c2ccccn2)nc2c(C3CC3)csc12", "inhibition at 20 µM", "1 to 25%"]
]}

Task: Consider the compound "Nc1nc(-c2ccccn2)nc2c(CC3CNC3)csc12" and give its measured inhibition at 20 µM.
Result: 51 to 75%

Task: Consider the compound COCCNc1nc(-c2nccn2C)nc2sc(-c3ccccc3)c(-c3ccccc3)c12 [drawing 3568] and give its measured inhibition at 20 µM.
Result: 51 to 75%

Task: Consider the compound "Cc1nc(-c2nccn2C)nc2sc(-c3ccccc3)c(-c3ccccc3)c12" and give its measured inhibition at 20 µM.
Result: 1 to 25%

Task: Consider the compound "Cc1nc(-c2cn(C)cn2)nc2sc(-c3ccc(CNC(=O)OC(C)(C)C)cc3)c(-c3ccccc3)c12" and give its measured inhibition at 20 µM.
Result: 1 to 25%

---

Assay System: KRas G12D/Q61H double mutant (Homo sapiens (Human), UniProt P01116, G12D/Q61H)
Sequence (P01116-2 other isoform, or with tags, fused parts or gaps G12D/Q61H): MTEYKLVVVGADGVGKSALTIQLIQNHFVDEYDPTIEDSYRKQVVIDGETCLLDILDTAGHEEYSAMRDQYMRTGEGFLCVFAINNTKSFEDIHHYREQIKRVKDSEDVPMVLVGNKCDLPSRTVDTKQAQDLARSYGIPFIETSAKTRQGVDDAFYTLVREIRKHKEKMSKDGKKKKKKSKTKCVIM
Method: Ras GTP binding domain inhibition assay
Setup Conditions: at 20 μM; read-out: KRas G12D Q61H % Inh.
Overview of reported inhibition at 20 µM across a group of molecules:

Example entries and their recorded answers appear below.
{"columns": ["Molecule", "inhibition at 20 µM"],
 "data": [
  ["O=C(c1csc2c(O)nc(-c3ccccn3)nc12)N1CCN(c2ccc(O)c(O)c2)CC1", "51 to 75%"],
  ["Nc1nc(-c2ccccn2)nc2c(CC3CCNCC3)csc12", "51 to 75%"],
  ["O=C(NCCc1cnc(O)nc1)c1csc2nc(-c3ccccn3)nc(N3CCSCC3)c12 [drawing 3752]", "25 to 50%"],
  ["COc1ccc(N2CCN(C(=O)c3csc4c(O)cc(-c5ccccn5)cc34)CC2)cc1O", "1 to 25%"]
]}

Task: Give the reported inhibition at 20 µM for "COCCCCNC(=O)c1csc2nc(-c3ccccn3)nc(O)c12" (system: KRas G12D/Q61H double mutant (Homo sapiens (Human), UniProt P01116, G12D/Q61H)).
Result: 1 to 25%

Task: Give the reported inhibition at 20 µM for CCC1N=C(C)C=C1c1csc2c(O)nc(-c3ccccn3)nc12 (stereo not shown) (system: KRas G12D/Q61H double mutant (Homo sapiens (Human), UniProt P01116, G12D/Q61H)).
Result: 51 to 75%

Task: Give the reported inhibition at 20 µM for COc1ccc(CCNC(=O)c2csc3nc(-c4ccccn4)nc(N4CCSCC4)c23)cn1 [drawing 3751] (system: KRas G12D/Q61H double mutant (Homo sapiens (Human), UniProt P01116, G12D/Q61H)).
Result: 25 to 50%

---

Overview of reported inhibition at 20 µM across a group of compounds:
Assay System: Rac-1 (Homo sapiens (Human), UniProt P63000)
Method: Rac and Rho inhibition assay
Type: binding
Setup Conditions: read-out: Rac-1 % Inh.

{"columns": ["Compound", "Assay System", "Quantity Measured", "Result"],
 "data": [
  ["COC(=O)c1c(C)sc2nc(-c3ccccn3)nc(N)c12", "Rac-1 (Homo sapiens (Human), UniProt P63000)", "inhibition at 20 µM", "25 to 50%"],
  ["CC(C)COc1ccc(-c2csc3c(O)nc(-c4ccccn4)nc23)cn1", "Rac-1 (Homo sapiens (Human), UniProt P63000)", "inhibition at 20 µM", "76 to 100%"],
  ["CCC1N=C(C)C=C1c1csc2c(O)nc(-c3ccccn3)nc12 (stereo not drawn)", "Rac-1 (Homo sapiens (Human), UniProt P63000)", "inhibition at 20 µM", "51 to 75%"],
  ["Nc1nc(-c2ccccn2)nc2c(CC3CCNCC3)csc12", "Rac-1 (Homo sapiens (Human), UniProt P63000)", "inhibition at 20 µM", "51 to 75%"],
  ["Oc1nc(-c2ccccn2)nc2c(-c3ccccc3C(F)F)csc12", "Rac-1 (Homo sapiens (Human), UniProt P63000)", "inhibition at 20 µM", "76 to 100%"],
  ["CCC(C)c1csc2c(OC)nc(-c3ccccn3)nc12 (stereo not drawn)", "Rac-1 (Homo sapiens (Human), UniProt P63000)", "inhibition at 20 µM", "76 to 100%"],
  ["Cc1cc2nc(-c3ccccn3)nc(O)c2s1 [drawing 3817]", "Rac-1 (Homo sapiens (Human), UniProt P63000)", "inhibition at 20 µM", "76 to 100%"],
  ["OC[C@H]1O[C@@H](c2csc3c2N=C(c2ccccn2)NC3O)[C@H](O)[C@@H]1O (stereo partly drawn) [drawing 3871]", "Rac-1 (Homo sapiens (Human), UniProt P63000)", "inhibition at 20 µM", "51 to 75%"],
  ["O=C(c1csc2c(O)nc(-c3ccccn3)nc12)N1CCNC(c2cn[nH]c2)C1 (stereo not drawn)", "Rac-1 (Homo sapiens (Human), UniProt P63000)", "inhibition at 20 µM", "76 to 100%"],
  ["O=C(c1csc2c(O)nc(-c3ccccn3)nc12)N1CCNC(c2ccc(Cl)cc2)C1 (stereo not drawn)", "Rac-1 (Homo sapiens (Human), UniProt P63000)", "inhibition at 20 µM", "76 to 100%"]
]}

Task: Consider the compound "CN(C)Cc1ccc(-c2csc3c(O)nc(-c4ccccn4)nc23)cc1F" and give its measured inhibition at 20 µM.
Result: 76 to 100%

Task: Consider the compound COCCNc1nc(-c2nccn2C)nc2sc(-c3ccccc3)c(-c3ccccc3)c12 [drawing 3879] and give its measured inhibition at 20 µM.
Result: 76 to 100%

Task: Consider the compound "Oc1nc(-c2ccccn2)nc2c(-c3cnc4ccccc4c3)csc12" and give its measured inhibition at 20 µM.
Result: 51 to 75%

---

Assay System: Rho-A (Homo sapiens (Human), UniProt P61586)
Sequence (P61586 whole entry): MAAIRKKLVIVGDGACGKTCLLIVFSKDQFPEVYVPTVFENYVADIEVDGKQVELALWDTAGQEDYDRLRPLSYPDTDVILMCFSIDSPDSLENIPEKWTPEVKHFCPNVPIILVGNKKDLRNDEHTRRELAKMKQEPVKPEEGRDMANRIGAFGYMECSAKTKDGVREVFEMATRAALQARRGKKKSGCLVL
Method: Rac and Rho inhibition assay
Format: binding
Setup Conditions: read-out: Rho-A % Inh.
Procedure: Buffer-I: • 50 mM Tris, pH 7.5 • 150 mM NaCl (optional) • 1 mM MgCl2 • 1 mM DTT. • KRas G12D mutant protein was expressed as a His-tagged protein. […] Then 22 μl of Cy3-GTP or Cy5-GTP was added to each well. The labeled GTP was incubated for 45 min. at room temperature. • Following GTP incubation, wells were washed 3× in Buffer-I, and 200 μl of Buffer-I were added to each well. • Following washes, the amount of bound labeled-GTP was measured with an Eppendorf AF2200 plate reader. […]
Overview of reported inhibition at 20 µM across a group of molecules:

Example entries and their recorded answers appear below.
{"columns": ["Molecule", "inhibition at 20 µM"],
 "data": [
  ["COCCCCNC(=O)c1csc2nc(-c3ccccn3)nc(O)c12", "1 to 25%"],
  ["CN(C)Cc1ccc(-c2csc3c(O)nc(-c4ccccn4)nc23)cc1F", "76 to 100%"],
  ["Oc1nc(-c2ccccn2)nc2c(-c3ccc4c(c3)CCCO4)csc12", "51 to 75%"],
  ["Cc1sc2c(O)nc(-c3ccccn3)nc2c1C(=O)N1CCN(Cc2cccc(O)c2)CC1", "76 to 100%"],
  ["COc1ccc(CCNC(=O)c2csc3nc(-c4ccccn4)nc(N4CCSCC4)c23)cn1 [drawing 3751]", "1 to 25%"]
]}

Task: Give the reported inhibition at 20 µM for CCC1N=C(C)C=C1c1csc2c(O)nc(-c3ccccn3)nc12 (stereo not shown) (system: Rho-A (Homo sapiens (Human), UniProt P61586)).
Result: 76 to 100%

Task: Give the reported inhibition at 20 µM for "CN(C)CCOc1cccc(-c2csc3c(O)nc(-c4ccccn4)nc23)c1" (system: Rho-A (Homo sapiens (Human), UniProt P61586)).
Result: 76 to 100%

Task: Give the reported inhibition at 20 µM for "O=C(c1csc2c(O)nc(-c3ccccn3)nc12)N1CCN(c2ccc(O)c(O)c2)CC1" (system: Rho-A (Homo sapiens (Human), UniProt P61586)).
Result: 76 to 100%

Task: Give the reported inhibition at 20 µM for O=C(c1csc2c(O)nc(-c3ccccn3)nc12)N1CCNC(c2ccc(O)cc2)C1 (stereo not shown) (system: Rho-A (Homo sapiens (Human), UniProt P61586)).
Result: 76 to 100%

Task: Give the reported inhibition at 20 µM for "Oc1nc(-c2ccccn2)nc2c(-c3ccccc3C(F)F)csc12" (system: Rho-A (Homo sapiens (Human), UniProt P61586)).
Result: 76 to 100%

Reference source for all entries: patent US11541041B1
